Listing of recorded pIC50 by entry.
- method-notes: Cytotoxicity test (MTT)
- Assay type: cell-based
- conditions-used: NIH/3T3 mouse embryonic fibroblast cells (ATCC CRL-1658), NIH/3T3 mouse fibroblast healthy cell line
Expect pIC50 as a plain number equal to -log10 of the molar concentration.

Please review the entries below; each comes with its answer.
>>> recorded_measurement("CCCN(C)CC(=O)Nc1ccc(/C=C2\\Cc3cc(OC)ccc3C2=O)cc1 [D28]")
5.19
>>> recorded_measurement("COc1ccc2c(c1)C(=O)/C(=C/c1ccc(NC(=O)CN3CCN(CCCN(C)C)CC3)cc1)C2 [D26]")
4.66

Now let's try a different one.
Entry COc1cc2c(cc1OC)C(=O)/C(=C/c1ccc(NC(=O)CN(C)CCCN(C)C)cc1)C2 [D39] ; pIC50 = 4.91
